Data credit: patent EP4549575A1

Item-by-item account of time of total proteolysis of the peptide
Test system: pronase
Test: Stability towards proteolysis (pronase, LC-MS)
Type: in vitro ADME, Streptomyces griseus
Conditions: peptide 200 µM; protease 5 µg/mL; 37°C; pH 7.5
Square brackets hold non-standard residues; d marks the D form. Peptide text beside a SMILES is read from it. βAla = NCCC(=O)O
State just the number; it will be interpreted in min.

Field: example entries. Status: answers known.
CSCC[C@H](NC(=O)[C@H](Cc1c[nH]c2ccccc12)NC(=O)[C@H](CCCNC(=N)N)NC(=O)CCN)C(=O)N[C@@H](CC(C)C)C(=O)N[C@H](C(=O)N[C@@H](Cc1ccc(O)cc1)C(=O)N[C@@H](CCCNC(=N)N)C(=O)N[C@@H](CCCNC(=N)N)C(N)=O)C(C)C [LP20] (H-[βAla]RWMLVYRR-NH2) : 10
CC(C)C[C@H](NC(=O)[C@H](CCCNC(=N)N)NC(=O)CNC(=O)CCN)C(=O)N[C@@H](CCCNC(=N)N)C(=O)N[C@@H](Cc1c[nH]c2ccccc12)C(=O)N[C@@H](CC(C)C)C(=O)N[C@@H](CCCNC(=N)N)C(=O)N[C@H](C(N)=O)C(C)C [LP32] (H-[βAla]GRLRWLRV-NH2) : 10
CC(=O)NCCC(=O)NCC(=O)N[C@@H](CCCNC(=N)N)C(=O)N[C@@H](CC(C)C)C(=O)N[C@@H](CCCNC(=N)N)C(=O)N[C@@H](Cc1c[nH]c2ccccc12)C(=O)N[C@@H](CC(C)C)C(=O)N[C@@H](CCCNC(=N)N)C(=O)N[C@H](C(N)=O)C(C)C [Ac-LP32, Ac-βA -G-R-L-R-W-L-R-V-CONH2] (Ac-[βAla]GRLRWLRV-NH2) : 10
CC(C)C[C@@H]1NC(=O)[C@H](CCCNC(=N)N)NC(=O)CNC(=O)CCNC(=O)[C@H](C(C)C)NC(=O)[C@H](CCCNC(=N)N)NC(=O)[C@H](CC(C)C)NC(=O)[C@H](Cc2c[nH]c3ccccc23)NC(=O)[C@H](CCCNC(=N)N)NC1=O [CP32, βA-G-R-L-R-W-L-R-V] (cyclo(GRLRWLRV[βAla])) : 30

Next molecule, time of total proteolysis of the peptide to be filled in.
I would be grateful if you could share the reported time of total proteolysis of the peptide for CSCC[C@H](NC(=O)[C@H](Cc1c[nH]c2ccccc12)NC(=O)[C@H](CCCNC(=N)N)NC(=O)CCNC(C)=O)C(=O)N[C@@H](CC(C)C)C(=O)N[C@H](C(=O)N[C@@H](Cc1ccc(O)cc1)C(=O)N[C@@H](CCCNC(=N)N)C(=O)N[C@@H](CCCNC(=N)N)C(N)=O)C(C)C [Ac-LP20, Ac-βA -R-W-M-L-V-Y-R-R-CONH2] (Ac-[βAla]RWMLVYRR-NH2) . 10
